target: Melanocortin receptor 4 (Homo sapiens, UniProt P32245); assay: Agonist activity at human MC4R expressed in CHO cells assessed as increase of alpha-MSH-stimulated cAMP release pretreated for 10 mins before alpha-MSH challenge measured after 40 mins relative to alpha-MSH; format: functional, cell-based
Sequence (P32245 whole entry): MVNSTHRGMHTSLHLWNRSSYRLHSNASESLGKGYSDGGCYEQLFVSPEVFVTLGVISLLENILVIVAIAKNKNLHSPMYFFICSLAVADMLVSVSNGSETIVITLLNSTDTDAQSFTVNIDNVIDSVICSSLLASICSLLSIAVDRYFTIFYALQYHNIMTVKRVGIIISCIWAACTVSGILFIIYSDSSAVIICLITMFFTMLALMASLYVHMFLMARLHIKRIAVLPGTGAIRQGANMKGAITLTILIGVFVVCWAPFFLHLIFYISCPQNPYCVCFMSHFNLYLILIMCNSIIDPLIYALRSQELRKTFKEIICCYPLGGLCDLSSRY
Outcome measure: Activity (%)

                                 cpd_smiles  numeric_value
0  CC(=O)NC(C)(C)[C@@H]1CC2(CCN(C(=O)[C@@H]3CN(C(C)(C)C)C[C@H]3c3ccc(F)cc3F)CC2)c2cc(Cl)c(C)cc21            109
1  Cc1cc2c(cc1Cl)C1(CCN(C(=O)[C@@H]3CN(C(C)(C)C)C[C@H]3c3ccc(F)cc3F)CC1)C[C@@H]2C(C)(C)C(=O)NC1CCOCC1             92
2  CC(=O)N(C)C(C)(C)[C@@H]1CC2(CCN(C(=O)[C@@H]3CN(C(C)(C)C)C[C@H]3c3ccc(F)cc3F)CC2)c2cc(Cl)c(C)cc21            112
3  Cc1cc2c(cc1Cl)C1(CCN(C(=O)[C@@H]3CN(C(C)(C)C)C[C@H]3c3ccc(F)cc3F)CC1)C[C@@H]2C(C)(C)C(=O)NC1CC1             95
4  Cc1cc2c(cc1Cl)C1(CCN(C(=O)[C@@H]3CN(C(C)(C)C)C[C@H]3c3ccc(F)cc3F)CC1)C[C@@H]2C(C)(C)C(=O)N1CCCC1             73
5  CCNC(=O)C(C)(C)[C@@H]1CC2(CCN(C(=O)[C@@H]3CN(C(C)(C)C)C[C@H]3c3ccc(F)cc3F)CC2)c2cc(Cl)c(C)cc21             96

---

molecular target: Melanocortin receptor 4 (Homo sapiens, UniProt P32245); assay: Agonist activity at human MC4R expressed in CHO cells assessed as increase of alpha-MSH-stimulated cAMP release pretreated for 10 mins before alpha-MSH challenge measured after 40 mins relative to alpha-MSH; type: functional, cell-based
Outcome measure: Activity (%)

>>> print(df.to_string())
                                 cpd_smiles                             target_system  numeric_value
0  Cc1cc2c(cc1Cl)C1(CCN(C(=O)[C@@H]3CN(C(C)(C)C)C[C@H]3c3ccc(F)cc3F)CC1)C[C@@H]2C(C)(C)C(=O)NCc1ccccc1  Melanocortin receptor 4 (Homo sapiens, UniProt P32245)             79
1  CNC(=O)C(C)(C)[C@H]1CC2(CCN(C(=O)[C@@H]3CN(C(C)(C)C)C[C@H]3c3ccc(F)cc3F)CC2)c2cc(Cl)c(C)cc21  Melanocortin receptor 4 (Homo sapiens, UniProt P32245)             94
2  CCNC(=O)C(C)(C)[C@H]1CC2(CCN(C(=O)[C@@H]3CN(C(C)(C)C)C[C@H]3c3ccc(F)cc3F)CC2)c2cc(Cl)c(C)cc21  Melanocortin receptor 4 (Homo sapiens, UniProt P32245)            100

---

target: Melanocortin receptor 4 (Homo sapiens); assay: Agonist activity at human MC4R expressed in CHO cells assessed as increase of alpha-MSH-stimulated cAMP release pretreated for 10 mins before alpha-MSH challenge measured after 40 mins
pEC50: −log10 of the molar value.
Outcome measure: pEC50

In the examples that follow, each entry is paired with its recorded pEC50.
>>> df
                                 cpd_smiles                           target_system  outcome_measure  numeric_value
0  Cc1cc2c(cc1Cl)C1(CCN(C(=O)[C@@H]3CN(C(C)(C)C)C[C@H]3c3ccc(F)cc3F)CC1)C[C@H]2C(C)(C)C(=O)N(C)C  Melanocortin receptor 4 (Homo sapiens)            pEC50           7.28
1  Cc1cc2c(cc1Cl)C1(CCN(C(=O)[C@@H]3CN(C(C)(C)C)C[C@H]3c3ccc(F)cc3F)CC1)C[C@@H]2C(C)(C)C(=O)NC1CCOCC1  Melanocortin receptor 4 (Homo sapiens)            pEC50           8.64
2  Cc1cc2c(cc1Cl)C1(CCN(C(=O)[C@@H]3CN(C(C)(C)C)C[C@H]3c3ccc(F)cc3F)CC1)C[C@@H]2C(C)(C)C(=O)N1CC[C@@H](O)C1  Melanocortin receptor 4 (Homo sapiens)            pEC50           9.60

1: Cc1cc2c(cc1Cl)C1(CCN(C(=O)[C@@H]3CN(C(C)(C)C)C[C@H]3c3ccc(F)cc3F)CC1)C[C@H]2C(C)(C)C(=O)NCC(F)(F)F
2: Cc1cc2c(cc1Cl)C1(CCN(C(=O)[C@@H]3CN(C(C)(C)C)C[C@H]3c3ccc(F)cc3F)CC1)C[C@@H]2C(C)(C)C(=O)NC(C)C
3: Cc1cc2c(cc1Cl)C1(CCN(C(=O)[C@@H]3CN(C(C)(C)C)C[C@H]3c3ccc(F)cc3F)CC1)C[C@@H]2C(C)(C)C(=O)NC1CC1
**Query** Sort the compounds on pEC50; start with the lowest figure. List the labels, following the order given in the request.
**Result** 1, 2, 3
(1: 6.51, 2: 8.54, 3: 9.10)

A: CO[C@@H]1CCN(C(=O)C(C)(C)[C@H]2CC3(CCN(C(=O)[C@@H]4CN(C(C)(C)C)C[C@H]4c4ccc(F)cc4F)CC3)c3cc(Cl)c(C)cc32)C1
B: Cc1cc2c(cc1Cl)C1(CCN(C(=O)[C@@H]3CN(C(C)(C)C)C[C@H]3c3ccc(F)cc3F)CC1)C[C@@H]2C(C)(C)C(=O)N1CCOCC1
**Query** Would you kindly point out which of A and B has the smaller pEC50 figure? Refer to your chosen entry by its label in the reply.
**Result** A
(A: 9.16, B: 9.42)

1: Cc1cc2c(cc1Cl)C1(CCN(C(=O)[C@@H]3CN(C(C)(C)C)C[C@H]3c3ccc(F)cc3F)CC1)C[C@@H]2C(C)(C)C(=O)NCCF
2: Cc1cc2c(cc1Cl)C1(CCN(C(=O)[C@@H]3CN(C(C)(C)C)C[C@H]3c3ccc(F)cc3F)CC1)C[C@H]2C(C)(C)C(=O)NC1CC1
3: Cc1cc2c(cc1Cl)C1(CCN(C(=O)[C@@H]3CN(C(C)(C)C)C[C@H]3c3ccc(F)cc3F)CC1)C[C@@H]2C(C)(C)C(=O)NC(C)(C)C
**Query** Ordering: ascending pEC50. Write the labels out in the order the request specifies.
**Result** 2, 3, 1

---

target: UniProtKB P32245; test: Displacement of [125I]-NDP-R-MSH from human MC4R expressed in CHO cells after 1.5 hrs by scintillation counting
Outcome measure: IC50 (nM)

Some solved entries appear below for comparison.
>>> df
                                 cpd_smiles     target_system  outcome_measure  numeric_value
0  Cc1cc2c(cc1Cl)C1(CCN(C(=O)[C@@H]3CN(C(C)(C)C)C[C@H]3c3ccc(F)cc3F)CC1)C[C@@H]2C(C)(C)C(=O)N1CCCC1  UniProtKB P32245             IC50            1.8
1  Cc1cc2c(cc1Cl)C1(CCN(C(=O)[C@@H]3CN(C(C)(C)C)C[C@H]3c3ccc(F)cc3F)CC1)C[C@@H]2C(C)(C)C(=O)N1CC(F)(F)C1  UniProtKB P32245             IC50            1.8
2  Cc1cc2c(cc1Cl)C1(CCN(C(=O)[C@@H]3CN(C(C)(C)C)C[C@H]3c3ccc(F)cc3F)CC1)C[C@@H]2C(C)(C)C(=O)N1CC[C@H](O)C1  UniProtKB P32245             IC50           0.89

a: CNC(=O)C(C)(C)[C@@H]1CC2(CCN(C(=O)[C@@H]3CN(C(C)(C)C)C[C@H]3c3ccc(F)cc3F)CC2)c2cc(Cl)c(C)cc21
b: Cc1cc2c(cc1Cl)C1(CCN(C(=O)[C@@H]3CN(C(C)(C)C)C[C@H]3c3ccc(F)cc3F)CC1)C[C@@H]2C(C)(C)C(=O)NC1CCOCC1
c: Cc1cc2c(cc1Cl)C1(CCN(C(=O)[C@@H]3CN(C(C)(C)C)C[C@H]3c3ccc(F)cc3F)CC1)C[C@@H]2C(C)(C)C(=O)N1CCC1
**Query** List the 3 entries from lowest IC50 to highest IC50 value. Give the labels in the order requested.
**Result** c, b, a

---

biological target: Melanocortin receptor 4 (Homo sapiens, UniProt P32245); test: Displacement of [125I]-NDP-R-MSH from human MC4R expressed in CHO cells after 1.5 hrs by scintillation counting; assay type: cell-based
Outcome measure: IC50 (nM)

Some compounds with known IC50 results, for comparison:
>>> df
                                 cpd_smiles                             target_system  numeric_value
0  CC(=O)N(C)C(C)(C)[C@@H]1CC2(CCN(C(=O)[C@@H]3CN(C(C)(C)C)C[C@H]3c3ccc(F)cc3F)CC2)c2cc(Cl)c(C)cc21  Melanocortin receptor 4 (Homo sapiens, UniProt P32245)            8.5
1  Cc1cc2c(cc1Cl)C1(CCN(C(=O)[C@@H]3CN(C(C)(C)C)C[C@H]3c3ccc(F)cc3F)CC1)C[C@@H]2C(C)(C)C(=O)N1C[C@@H]2C[C@H]1CO2  Melanocortin receptor 4 (Homo sapiens, UniProt P32245)            1.6
2  Cc1cc2c(cc1Cl)C1(CCN(C(=O)[C@@H]3CN(C(C)(C)C)C[C@H]3c3ccc(F)cc3F)CC1)C[C@@H]2C(C)(C)C(=O)NC(C)(C)CO  Melanocortin receptor 4 (Homo sapiens, UniProt P32245)            3.9

1: CCN(CC)C(=O)C(C)(C)[C@H]1CC2(CCN(C(=O)[C@@H]3CN(C(C)(C)C)C[C@H]3c3ccc(F)cc3F)CC2)c2cc(Cl)c(C)cc21
2: Cc1cc2c(cc1Cl)C1(CCN(C(=O)[C@@H]3CN(C(C)(C)C)C[C@H]3c3ccc(F)cc3F)CC1)C[C@@H]2C(C)(C)C(=O)NCC(F)(F)F
**Query** Lower value of IC50 belongs to which: 1 or 2 ? // return label of chosen record
**Result** 1
